biological target: Human adenosine kinase (Homo sapiens); construct: made in house; host or cells: E. coli; assay: AMP Site/Enzyme Selectivity: Adenosine Kinase; assay type: biochemical; conditions: read-out: Adenosine Kinase (inh.)
Sequence (P55263 1-345 isoform P55263-2): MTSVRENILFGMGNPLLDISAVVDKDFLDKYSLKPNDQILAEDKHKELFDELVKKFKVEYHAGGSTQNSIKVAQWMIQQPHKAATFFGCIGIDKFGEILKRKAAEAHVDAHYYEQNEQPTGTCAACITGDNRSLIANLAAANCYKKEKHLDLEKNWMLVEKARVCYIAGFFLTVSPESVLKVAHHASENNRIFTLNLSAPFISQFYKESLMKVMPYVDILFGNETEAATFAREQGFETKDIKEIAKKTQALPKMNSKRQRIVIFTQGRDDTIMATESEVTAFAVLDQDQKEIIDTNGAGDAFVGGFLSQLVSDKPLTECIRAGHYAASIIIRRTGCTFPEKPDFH
pIC50: −log10 of the molar value.

| Compound | pIC50 |
| --- | --- |
| CC(C)Cc1oc(N)nc1-c1ccc(P(=O)(O)O)o1 [Compound 10.1] | < 5.00 |
| CC(C)Cc1sc(N)nc1-c1ccc(P(=O)(O)O)o1 [Compound 3.1] | < 5.00 |

###

biological target: Glycogen Phosphorylase (rabbit muscle) (Oryctolagus cuniculus, UniProt P00489); construct: Enzyme (rabbit muscle) was purchased from Sigma; experiment: AMP Site/Enzyme Selectivity: Glycogen Phosphorylase; settings: activation; read-out: Glycogen Phosphorylase (act.)
Sequence (P00489 2-843 limits assumed): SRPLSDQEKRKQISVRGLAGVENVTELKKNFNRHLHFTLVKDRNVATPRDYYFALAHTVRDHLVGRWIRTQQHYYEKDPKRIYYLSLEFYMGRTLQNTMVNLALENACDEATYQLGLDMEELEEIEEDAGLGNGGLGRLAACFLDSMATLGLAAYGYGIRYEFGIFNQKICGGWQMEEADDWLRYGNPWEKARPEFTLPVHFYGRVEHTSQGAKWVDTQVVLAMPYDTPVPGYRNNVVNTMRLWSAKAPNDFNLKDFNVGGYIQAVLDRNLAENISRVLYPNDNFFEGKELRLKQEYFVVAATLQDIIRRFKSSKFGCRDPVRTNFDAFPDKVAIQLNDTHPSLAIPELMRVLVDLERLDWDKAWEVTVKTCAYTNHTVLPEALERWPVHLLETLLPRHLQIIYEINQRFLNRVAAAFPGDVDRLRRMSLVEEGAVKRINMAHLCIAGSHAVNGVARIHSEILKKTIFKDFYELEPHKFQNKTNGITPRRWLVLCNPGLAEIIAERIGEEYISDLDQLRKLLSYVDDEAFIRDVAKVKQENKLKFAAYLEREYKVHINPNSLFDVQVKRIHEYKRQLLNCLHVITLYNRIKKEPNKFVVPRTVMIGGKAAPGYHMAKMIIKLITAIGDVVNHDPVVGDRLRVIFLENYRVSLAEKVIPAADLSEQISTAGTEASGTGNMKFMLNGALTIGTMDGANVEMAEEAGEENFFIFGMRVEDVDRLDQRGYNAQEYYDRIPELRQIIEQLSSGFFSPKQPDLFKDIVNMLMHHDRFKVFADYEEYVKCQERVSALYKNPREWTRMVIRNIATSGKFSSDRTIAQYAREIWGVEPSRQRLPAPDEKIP

| Structure | Target | EC50 |
| --- | --- | --- |
| CC(C)Cc1oc(N)nc1-c1ccc(P(=O)(O)O)o1 | Glycogen Phosphorylase (rabbit muscle) (Oryctolagus cuniculus, UniProt P00489) | > 100 µM |
| CC(C)Cc1sc(N)nc1-c1ccc(P(=O)(O)O)o1 | Glycogen Phosphorylase (rabbit muscle) (Oryctolagus cuniculus, UniProt P00489) | > 100 µM |
